Measured TGI of individual entries
Tested on: EKVX NSCLC
Assay: NCI tumour cell line growth inhibition, 48 h

MOLECULE	TGI
CN(CCCCCl)P(=O)(OCCS(=O)(=O)CC(NC(=O)CCC(N)C(=O)O)C(=O)NC(C(=O)O)c1ccccc1)OCC1OC(n2cc(F)c(=O)[nH]c2=O)CC1O (centres undefined)	> 100 µM

Query: I am curious: what TGI value has been reported for COc1ccc2cc(-c3c(-c4ccncc4)nc(-c4ccc(S(C)=O)cc4)n3C)ccc2c1 (centres undefined) ?
Reply: > 25 µM

Query: I am curious: what TGI value has been reported for CC(C)c1c2[nH]c3ccccc3c2c(C(C)C)c2[nH]c3ccccc3c12 ?
Reply: > 100 µM

Query: I am curious: what TGI value has been reported for C/C1=C\[C@@H](O)C(=O)/C=C/C=C\c2csc(n2)[C@@H](C)NC(=O)C[C@@]2(CC1)S(=O)SC(=O)[C@]2(C)O (some centres undefined) ?
Reply: 0.612 µM

Query: I am curious: what TGI value has been reported for Cc1cc(NCCCCCCCNc2cc(C)nc3cc([N+](=O)[O-])ccc23)c2ccc([N+](=O)[O-])cc2n1 ?
Reply: 35.9 µM

Query: I am curious: what TGI value has been reported for Nc1ccc(CCN2CCN(CCCc3ccccc3)CC2)cc1 ?
Reply: > 100 µM
